test system: MCF7; experiment: Inhibition of MCF-7 cancer cell proliferation; Average of 5 measurements; format: functional, cell-based; details: Homo sapiens
Parameter measured: IC50 (nM)
Numbers only, in nM.

Problem: For the compound Oc1cccc([C@H]2Sc3cc(O)ccc3O[C@H]2c2ccc(OCCN3CCCC3)cc2)c1 , give its measured IC50 value.
Result: 0.6

----------
Consider the following molecules; for each one, report its IC50.
target: Estrogen receptor beta (Homo sapiens)
Sequence (Q92731 whole entry): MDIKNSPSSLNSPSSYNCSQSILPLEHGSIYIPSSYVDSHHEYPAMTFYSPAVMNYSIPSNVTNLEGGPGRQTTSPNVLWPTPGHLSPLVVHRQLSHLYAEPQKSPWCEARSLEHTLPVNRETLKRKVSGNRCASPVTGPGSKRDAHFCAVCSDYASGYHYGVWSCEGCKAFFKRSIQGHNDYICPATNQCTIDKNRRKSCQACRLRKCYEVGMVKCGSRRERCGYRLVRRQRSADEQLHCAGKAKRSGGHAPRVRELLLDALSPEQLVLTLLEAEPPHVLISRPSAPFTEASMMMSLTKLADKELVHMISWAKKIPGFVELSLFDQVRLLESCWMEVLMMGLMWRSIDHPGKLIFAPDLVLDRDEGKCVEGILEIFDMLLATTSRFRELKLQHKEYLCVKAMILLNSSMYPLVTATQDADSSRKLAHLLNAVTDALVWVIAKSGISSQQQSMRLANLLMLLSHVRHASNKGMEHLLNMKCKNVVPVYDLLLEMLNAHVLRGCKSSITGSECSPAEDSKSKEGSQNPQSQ
Could you give the number and then its unit, please?

// below: answered molecules
Oc1ccc([C@H]2Sc3cc(O)ccc3S[C@H]2c2ccc(OCCN3CCCC3)cc2)cc1 :: 0.266 µM
Oc1ccc([C@H]2Sc3cc(O)ccc3S[C@H]2c2ccc(OCCN3CCCCC3)cc2)cc1 :: 0.326 µM

I have 3 molecules here; please give me IC50 for each one.
1. Oc1cccc([C@H]2Sc3cc(O)ccc3S[C@H]2c2ccc(OCCN3CCCCC3)cc2)c1
2. Oc1cccc([C@H]2Sc3cc(O)ccc3S[C@H]2c2ccc(OCCN3CCCCC3)c(Br)c2)c1
3. Oc1ccc([C@H]2Sc3cc(O)ccc3S[C@H]2c2ccc(OCCN3CCCC3)c(Br)c2)cc1

Result:
1. 0.583 µM
2. 0.161 µM
3. 0.087 µM

----------
Observed pIC50, system Estrogen receptor (Homo sapiens, UniProt P03372).
Give bare numbers, as −log10 of the molar value.

// known answers, use as guide
Oc1cccc([C@H]2Sc3cc(O)ccc3S[C@H]2c2ccc(OCCN3CCCCC3)c(Br)c2)c1 :: 8.40
Oc1cccc([C@H]2Sc3cc(O)ccc3O[C@H]2c2ccc(OCCN3CCCC3)cc2)c1 :: 9.00
Oc1cccc([C@H]2Sc3cc(O)ccc3S[C@H]2c2ccc(OCCN3CCCCC3)cc2)c1 :: 7.82

Kindly review the next compound as well.
Problem: Respond only with pIC50 recorded for Oc1ccc([C@H]2Sc3cc(O)ccc3S[C@H]2c2ccc(OCCN3CCCC3)c(Br)c2)cc1
Result: 8.40
